Test system: HCC-2998 colon
Assay protocol: NCI-60 one-dose screen, 48 h (100 = growth as untreated, 0 = no growth, -100 = all killed)
Condition summary: 10 µM unless noted
Compounds without any hit were thinned out: in the full panel of roughly 83,000, 20% have a hit.
Property measured: growth (%)

>>> readout_value("CN1CCN(CC#CCn2c3c(c4ccccc42)C[C@]2(C)[C@H]4CC[C@@H]5[C@H]6[C@H]7OC(=O)[C@@]6(CCC7(C)C)CC[C@@]5(C)[C@]4(C)CC[C@H]2C3(C)C)CC1")
106
>>> readout_value("N#C/C(=C\\c1ccc(-c2ccc(Cl)cc2)o1)c1nc(-c2ccco2)cs1")
46.3
>>> readout_value("CC(c1ccccc1)N1C(=O)C(C2SC(=S)N(C(C)c3ccccc3)C2=O)SC1=S (centres undefined)")
107
>>> readout_value("COc1cc2nc(Cl)nc(Nc3cccc(C(=O)/C=C/c4ccc(Cl)cc4)c3)c2cc1OC")
93.4

---

Consider the following molecules and their measured growth readings.
System: NCI/ADR-RES ovarian
Assay protocol: NCI-60 one-dose screen, 48 h (100 = growth as untreated, 0 = no growth, -100 = all killed)
Condition summary: 10 µM unless noted
Protocol: Growth inhibition of the NCI/ADR-RES human […] tumor cell line is measured as a screen for anti-cancer activity. Cells are grown in 96 well plates and exposed to the test compound for 48 hours. Compounds are tested at a single concentration, which is 10^-5 M for most compounds. The reported endpoint is percent growth (GI% or GIPRCNT), where numbers from 0 - 100% represent growth inhibition, and numbers from -100% - 0 represent cell death. For example, a value of 40 represents 60% growth inhibition. […]
About 83,000 compounds went through this panel and 20% of them were active in at least one assay; those are over-represented in the sample as a whole.
Property measured: growth (%)

>>> readout_value("COC(=O)C(Cc1ccccc1)n1cc(COc2nc(Cl)nc(Nc3ccc(Cl)cc3)n2)nn1 (stereo unspecified)")
101
>>> readout_value("Cc1c(C)c2c(c(C)c1NC(=O)CCCCCCC(=O)O)CCC(C)(CCCC(C)CCCC(C)CCCC(C)C)O2 (stereo unspecified)")
77.3
>>> readout_value("C=COCCCCCCCCCCCCCCCCCC")
98.9
>>> readout_value("CCOC(=O)C/C(=C\\c1ccccc1)C(C)=O")
110
>>> readout_value("N=C(N)c1ccc(S(N)(=O)=O)cc1")
97.5
>>> readout_value("NCCn1cc(-c2nc(-c3c[nH]c4ncccc34)cs2)c2cc(F)ccc21")
86.4
>>> readout_value("O=C1c2cccc3cccc(c23)C(=O)N1CC#Cc1ccc2c3c(cccc13)C(=O)N(CCO)C2=O")
91.7
>>> readout_value("c1ccc2[nH]c(-c3cc(-c4ccc5c(c4)OCO5)n[nH]3)nc2c1")
59.6
>>> readout_value("COC(=O)c1cc(=O)nc(N/N=C/c2ccc(C)cc2)s1")
106
>>> readout_value("O=C1C=C(C(O)c2ccc(O)cc2)C(=O)c2ccccc21 (stereo unspecified)")
105
>>> readout_value("COc1cc2c(cc1OC)C(=O)/C(=C/c1cc(-c3ccc4c(c3)OCO4)n[nH]1)C2")
-15

---

System: DU-145 prostate
Assay protocol: NCI-60 one-dose screen, 48 h (100 = growth as untreated, 0 = no growth, -100 = all killed)
Condition summary: 10 µM unless noted
About 83,000 compounds went through this panel and 20% of them were active in at least one assay; those are over-represented in the sample as a whole.
Note to self: growth under 70% means true (1), ties and anything higher get false (0).

>>> discrete_label("O=C(NCN1C(=O)c2cccc3cccc(c23)C1=O)N1CCC(Cc2ccccc2)CC1")
"false (0)"
>>> discrete_label("Nc1c2c(nc3ccc(Cl)cc13)CC(c1ccc(O)cc1)CC2=O (stereo not given)")
"false (0)"
>>> discrete_label("CCNCCCn1c2c(c3ccc([N+](=O)[O-])cc3c1=O)C(=O)c1cc(OC)cnc1-2")
"true (1)"
>>> discrete_label("Cn1cc(-c2nc(-c3c[nH]c4ncccc34)cs2)c2ccccc21")
"false (0)"
>>> discrete_label("N#C/C(=C\\c1ccc(-c2ccc(Br)cc2)o1)c1nc(-c2ccco2)cs1")
"false (0)"
>>> discrete_label("Nc1ccc(Cl)cn1")
"false (0)"
>>> discrete_label("O=C1/C(=C\\c2ccco2)SC(=S)N1CCc1ccc(O)cc1")
"true (1)"
>>> discrete_label("C[C@@H]1CCCCCCCCC[C@H](O)C(=O)C[C@@H](SC[C@@H](O)C(=O)O)C(=O)O1")
"false (0)"
>>> discrete_label("CCOc1ccc(NC(=O)c2ccoc2COc2ccccc2)cc1")
"false (0)"

---

Test system: CCRF-CEM leukemia
Assay protocol: NCI-60 one-dose screen, 48 h (100 = growth as untreated, 0 = no growth, -100 = all killed)
Condition summary: 10 µM unless noted
About 83,000 compounds went through this panel and 20% of them were active in at least one assay; those are over-represented in the sample as a whole.
Output: class label from growth. Mapping: group A = under 40%, group B = from 40% up to 90%, group C = 90% and over

>>> discrete_label("Brc1ccc2c(c1)c(-c1nc(-c3c[nH]c4ncccc34)cs1)cn2CCCN1CCCCC1")
"group A"
>>> discrete_label("O=[N+]([O-])c1cc(S(=O)(=O)c2ccc(F)c([N+](=O)[O-])c2)ccc1F")
"group B"
>>> discrete_label("c1ccc(CN2C(c3ccccc3)=Nc3ccccc3C2c2c[nH]c3ccccc23)cc1 (stereo not given)")
"group A"
>>> discrete_label("COc1c(N)c2c(c([N+](=O)[O-])c1OC)C(=O)OC2")
"group C"
>>> discrete_label("CC1(C)NC2=C(C(Nc3cccnc3)N1)C(c1ccc([N+](=O)[O-])cc1)C(C(=O)c1ccc(N=[N+]=[N-])cc1)O2 (stereo not given)")
"group C"
>>> discrete_label("CC(C)(C)c1cc(-n2c(-c3ccc(Cl)cc3)nc3cc(C(=O)Nc4ccc(Cl)cc4)ccc32)n[nH]1")
"group B"
>>> discrete_label("Oc1ccccc1/C=N\\NC(=S)Nc1ccc(F)cc1")
"group A"
>>> discrete_label("CN(C)c1ccc(N)c2ccccc12")
"group B"

---

Tested on: NCI-H522 lung
Assay protocol: NCI-60 one-dose screen, 48 h (100 = growth as untreated, 0 = no growth, -100 = all killed)
Condition summary: 10 µM unless noted
This is part of a sample that, as a whole, favours compounds with a hit. Of some 83,000 tested, about 20% had one in any assay.
Property measured: growth (%)

>>> readout_value("CN1CCN(CCOc2ccc(-c3cnc4c(-c5ccccc5F)cnn4c3)cc2)CC1")
66.8
>>> readout_value("COc1ccc(-c2cc(/C=C/C(=O)c3ccc(OC)c(OC)c3)[nH]n2)cc1")
1.47
>>> readout_value("C=C(C)[C@@H]1CC[C@]2(C(=O)O)CC[C@]3(C)[C@H](CC[C@@H]4[C@@]5(C)C/C(=C/c6ccc(OC)cc6)C(=O)C(C)(C)[C@@H]5CC[C@]43C)[C@@H]12")
12.7
>>> readout_value("Cn1cc(-c2csc(-c3cn(CCCN4CCCCC4)c4ccc(F)cc34)n2)c2cccnc21")
103

---

Test system: MOLT-4 leukemia
Assay protocol: NCI-60 one-dose screen, 48 h
Condition summary: 10 µM unless noted
The panel holds about 83,000 compounds, 20% with a hit somewhere; the sample as a whole holds those more often. Active and inactive are the calls of the source. How the source made its calls: active means growth percent below 10; inactive means the rest.
Labels: 1.0 = active, 0.0 = inactive

>>> discrete_label("c1cc(N2CCCC2)c2nc(-c3[nH]ncc3Nc3ncnc4[nH]ccc34)[nH]c2c1")
1.0
>>> discrete_label("CC1(C)C=CC[C@]2(C)[C@H]3CC[C@@H]4[C@H]5[C@H](C(=O)/C=C/c6cccnc6)CC[C@]5(CO)CC[C@@]4(C)[C@]3(C)CC[C@@H]12")
1.0
>>> discrete_label("Cc1cc(Cl)nc(N(CCNc2ccnc3cc(Cl)ccc23)Cc2ccco2)n1")
1.0
>>> discrete_label("CC(C)(C)c1nc(-c2ccc(O)c(O)c2)cs1")
0.0
>>> discrete_label("C[N+](C)(CCCCCC[N+](C)(C)C1c2ccccc2-c2ccccc21)C1c2ccccc2-c2ccccc21")
0.0
>>> discrete_label("COc1ccc(-c2c(-c3nc4ccc(N5CCOCC5)cc4[nH]3)[nH]c(C)c2C(C)=O)cc1")
0.0
>>> discrete_label("COc1cc(/C=C/c2cc(/C=C/c3ccc(O)c(OC)c3)n(-c3ccccc3)c(=O)n2)ccc1O")
0.0
>>> discrete_label("CC(=O)Cc1nsc(NC(=O)c2ccoc2COc2ccccc2)n1")
0.0
>>> discrete_label("O=S(=O)(NCCNc1cc(-c2cn(-c3ccccc3)nc2-c2cccc(O)c2)ccn1)c1ccc(Br)cc1")
1.0
>>> discrete_label("COc1cc2nc(Cl)nc(Nc3cccc(C(=O)/C=C/c4ccc(F)cc4)c3)c2cc1OC")
0.0
>>> discrete_label("COC(=O)[C@]12CC[C@@H](C)[C@H](C)[C@@H]1C1=CC[C@@H]3[C@@]4(C)C[C@@H](OC(C)=O)[C@H](O)[C@@](C)(COC(C)=O)[C@@H]4[C@H](O)C[C@@]3(C)[C@]1(C)CC2")
1.0
>>> discrete_label("Fc1ccc(NCc2nnc(-c3ccc(Cl)cc3)o2)cc1")
0.0
>>> discrete_label("COc1ccc(/C=C(\\C#N)c2cc3ccccc3n2C(C)=O)cc1")
0.0
>>> discrete_label("CC(=O)N1N=C(c2ccc(C)cc2)CC1c1ccc(Oc2ccc(Br)cc2)cc1 (stereo not drawn)")
0.0
>>> discrete_label("COC(=O)[C@]12CC[C@@H](C)[C@H](C)[C@@H]1C1=CC(=O)[C@@H]3[C@@]4(C)C[C@@H](O)[C@H](O)[C@@]5(C)COC(=C45)C[C@@]3(C)[C@]1(C)CC2")
0.0
>>> discrete_label("N#CC1=C(N)Oc2ccc3ccccc3c2C1c1ccccc1 (stereo not drawn)")
0.0
>>> discrete_label("CN(C)c1ccc(N)c2ccccc12")
0.0
>>> discrete_label("O=C(NC1=CC(=O)c2ccccc2C1=O)c1ccccc1")
1.0

Ref: PubChem BioAssay (NCI)
